Source of measurements: ChEMBL document CHEMBL3603735

Hi there, I'd appreciate the recorded Imax for every entry that follows.
- SYSTEM: Neuronal acetylcholine receptor; alpha4/beta2 (Homo sapiens, UniProt P17787+P43681)
- TEST NAME: Agonist activity at human alpha4beta2 nAChR expressed in rat GH4C1 cells assessed as induction of peak current amplitude at holding potential of -70 mV by whole-cell patch clamp assay relative to acetylcholine
- Assay type: cell-based
- STATED CONDITIONS: GH4-C1
The reply should consist of the numeric value with the unit placed after it.

These solved cases illustrate the format of a correct answer.
{"COMPOUND": "CN1CCC[C@H]1COc1cncc(O)c1", "SYSTEM": "Neuronal acetylcholine receptor; alpha4/beta2 (Homo sapiens, UniProt P17787+P43681)", "OBSERVED VALUE": "661%"}
{"COMPOUND": "COc1ccc(O)cc1OC[C@@H]1CCCN1C", "SYSTEM": "Neuronal acetylcholine receptor; alpha4/beta2 (Homo sapiens, UniProt P17787+P43681)", "OBSERVED VALUE": "17%"}

Hi team, please reply with Imax for each item in this list.
1. CN1CCC[C@H]1COc1cccc(O)c1
2. CN1CCC[C@H]1[C@@H]1COc2ccc(O)cc2O1
3. C[C@@H](Oc1cccnc1)[C@@H]1CCCN1C (racemic)
4. CN1CC[C@H]1COc1cccc(O)c1
5. OCCCCC#Cc1cncc(OC[C@@H]2CCN2)c1

Ans.
1. 162%
2. 29%
3. 39%
4. 131%
5. 39%

---

- SYSTEM: Neuronal acetylcholine receptor; alpha4/beta2 (Rattus norvegicus, UniProt P09483+P12390)
- Sequence (P09483 whole entry): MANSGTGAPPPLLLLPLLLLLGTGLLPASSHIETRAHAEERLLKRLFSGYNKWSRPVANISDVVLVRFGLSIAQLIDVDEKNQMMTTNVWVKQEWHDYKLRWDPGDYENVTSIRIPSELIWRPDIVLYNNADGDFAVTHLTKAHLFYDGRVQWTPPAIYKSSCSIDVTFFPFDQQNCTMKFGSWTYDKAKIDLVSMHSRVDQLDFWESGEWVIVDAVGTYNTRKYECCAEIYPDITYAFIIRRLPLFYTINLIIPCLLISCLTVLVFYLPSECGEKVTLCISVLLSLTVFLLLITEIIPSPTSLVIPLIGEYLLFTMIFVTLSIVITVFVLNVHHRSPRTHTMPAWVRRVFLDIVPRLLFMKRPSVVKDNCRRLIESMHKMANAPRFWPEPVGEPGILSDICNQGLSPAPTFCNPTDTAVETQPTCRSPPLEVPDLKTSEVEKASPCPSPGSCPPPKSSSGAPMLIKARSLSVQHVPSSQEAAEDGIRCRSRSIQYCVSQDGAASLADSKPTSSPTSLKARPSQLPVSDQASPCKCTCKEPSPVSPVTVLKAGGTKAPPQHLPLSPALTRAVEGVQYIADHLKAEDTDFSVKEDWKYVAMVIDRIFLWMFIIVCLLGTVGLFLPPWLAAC
- Sequence (P12390 whole entry): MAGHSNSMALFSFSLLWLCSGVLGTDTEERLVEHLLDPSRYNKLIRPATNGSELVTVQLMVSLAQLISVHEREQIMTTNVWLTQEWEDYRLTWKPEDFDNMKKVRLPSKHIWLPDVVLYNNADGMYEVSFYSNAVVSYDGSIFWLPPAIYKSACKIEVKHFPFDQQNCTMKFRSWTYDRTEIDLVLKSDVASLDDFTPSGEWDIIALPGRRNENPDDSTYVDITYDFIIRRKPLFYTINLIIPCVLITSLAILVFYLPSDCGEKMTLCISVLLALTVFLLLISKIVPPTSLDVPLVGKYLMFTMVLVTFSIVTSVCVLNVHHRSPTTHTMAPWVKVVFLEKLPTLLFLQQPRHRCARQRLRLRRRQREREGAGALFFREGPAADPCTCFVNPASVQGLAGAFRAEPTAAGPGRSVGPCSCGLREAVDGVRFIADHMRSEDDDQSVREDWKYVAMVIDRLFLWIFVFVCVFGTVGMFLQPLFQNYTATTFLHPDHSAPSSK
- TEST NAME: Displacement of [3H]epibatidine from alpha4beta2 nAChR in rat cortex membranes by liquid scintillation counting method
MEASUREMENT KIND: pKi
One number for each entry, as −log10 of the molar value.

These solved cases illustrate the format of a correct answer.
{"MOLECULE": "COc1ccncc1OC[C@@H]1CCCN1", "pKi": 6.21}
{"MOLECULE": "C[C@H](Oc1cccc(O)c1)[C@@H]1CCCN1C", "pKi": 6.72}

Hi team, please reply with pKi for each item in this list.
1. COc1ncccc1OC[C@@H]1CCCN1C
2. C[C@@H](Oc1ccccc1)[C@@H]1CCCN1C (racemic)
3. COc1ccncc1OC[C@@H]1CCCN1C
4. C[C@@H](Oc1cccc(O)c1)[C@@H]1CCCN1C (racemic)
5. CC(Oc1ccccc1)C1CCCN1C (mixture of isomers)
6. Oc1cccc(OC[C@@H]2CCN2)c1
7. c1ccc(OC[C@@H]2CCN2)cc1
8. CN1CC[C@H]1COc1cccc(O)c1

Ans.
1. 5.14
2. 5.81
3. 6.59
4. 7.95
5. 5.34
6. 8.15
7. 7.28
8. 8.07

---

- SYSTEM: Neuronal acetylcholine receptor subunit alpha-7 (Rattus norvegicus)
- Sequence (Q05941 whole entry): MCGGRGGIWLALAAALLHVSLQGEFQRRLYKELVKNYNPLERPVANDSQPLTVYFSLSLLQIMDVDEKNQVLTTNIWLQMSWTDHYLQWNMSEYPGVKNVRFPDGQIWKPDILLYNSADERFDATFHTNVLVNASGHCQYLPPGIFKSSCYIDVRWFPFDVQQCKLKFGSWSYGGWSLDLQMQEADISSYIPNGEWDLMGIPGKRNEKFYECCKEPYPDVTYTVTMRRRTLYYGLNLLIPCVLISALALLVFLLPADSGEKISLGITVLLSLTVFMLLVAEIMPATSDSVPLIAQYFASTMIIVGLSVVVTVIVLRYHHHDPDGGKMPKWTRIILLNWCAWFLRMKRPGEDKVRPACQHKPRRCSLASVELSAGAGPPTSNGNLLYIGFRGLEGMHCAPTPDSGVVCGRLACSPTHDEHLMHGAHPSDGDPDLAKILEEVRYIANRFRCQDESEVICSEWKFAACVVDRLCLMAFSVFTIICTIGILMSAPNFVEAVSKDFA
- TEST NAME: Displacement of [125I]]-alpha-bungarotoxin from alpha7 nAChR in rat hippocampus membranes by liquid scintillation counting method
MEASUREMENT KIND: pKi
Give bare numbers, as −log10 of the molar value.

These solved cases illustrate the format of a correct answer.
{"COMPOUND": "Oc1cncc(OC[C@@H]2CCCN2)c1", "SYSTEM": "Neuronal acetylcholine receptor subunit alpha-7 (Rattus norvegicus)", "pKi": 5.46}
{"COMPOUND": "C[C@@H](Oc1cccnc1)[C@@H]1CCCN1C (racemic)", "SYSTEM": "Neuronal acetylcholine receptor subunit alpha-7 (Rattus norvegicus)", "pKi": 6.41}
{"COMPOUND": "C[C@H](Oc1cccc(O)c1)[C@@H]1CCCN1C", "SYSTEM": "Neuronal acetylcholine receptor subunit alpha-7 (Rattus norvegicus)", "pKi": 6.13}
{"COMPOUND": "Oc1cccc(OC[C@@H]2CCN2)c1", "SYSTEM": "Neuronal acetylcholine receptor subunit alpha-7 (Rattus norvegicus)", "pKi": 5.92}
{"COMPOUND": "CN1CCC[C@H]1COc1cccc(O)c1", "SYSTEM": "Neuronal acetylcholine receptor subunit alpha-7 (Rattus norvegicus)", "pKi": 6.92}

Kindly consider the entry below.
# pKi (compound: CC(Oc1ccccc1)C1CCCN1C (mixture of isomers) ) is 5.05
